# Test system: Rattus norvegicus
# assay.procedure: Inhibition of arthritis in rat at 300-600 umol/kg, id
# Assay type: functional
metric: Inhibition (%)

1. COc1ccc2cc(C(C)C(=O)N3CCCC3C(=O)NCCS)ccc2c1 (centres undefined) | 51.6
2. CCOC(=O)C(CS)NC(=O)C1CCCN1C(=O)C(C)c1ccc2cc(OC)ccc2c1 (centres undefined) | 100
3. COc1ccc2c(c1)c(CC(=O)N1CCCC1C(=O)NCCS)c(C)n2C(=O)c1ccc(Cl)cc1 (centres undefined) | 50.8
4. CCOC(=O)C(CS)NC(=O)C1CCCN1C(=O)Cc1c(C)n(C(=O)c2ccc(Cl)cc2)c2ccc(OC)cc12 (centres undefined) | 77.4
